meta.source: PubChem BioAssay (NCI)

# Tested on: K-562 leukemia
# Assay text: NCI-60 one-dose screen, 48 h (100 = growth as untreated, 0 = no growth, -100 = all killed)
# Settings: 10 µM unless noted
This is part of a sample that, as a whole, favours compounds with a hit. Of some 83,000 tested, about 20% had one in any assay.
Property measured: growth (%)
// units = %; emit number, no label

[ask] Return reported growth. Input molecule: `CS(=O)(=O)c1cccc(Nc2ncc3cc(-c4ccccc4Cl)ccc3n2)c1`
[reply] 1.05

[ask] Return reported growth. Input molecule: COc1cccc(C2C3=C(COC3=O)N(CCO)c3cc4c(cc32)OCCO4)c1 (configuration not stated)
[reply] 6.5

[ask] Return reported growth. Input molecule: O=c1n(C2OC(CO)C(O)C2O)ccc2nccn12 (configuration not stated)
[reply] 102

[ask] Return reported growth. Input molecule: `COc1ccc(/C=C2/CCc3cc4ccc(OC)cc4[o+]c32)c(O)c1`
[reply] 39.1

[ask] Return reported growth. Input molecule: `CCOC(=O)/C(=C\c1ccccc1Cl)P(=O)(OCC)OCC`
[reply] 28.6

[ask] Return reported growth. Input molecule: `CCNc1nc(-c2ccc(Cl)c(OC)c2)c(-c2ccnc(NCCNS(=O)(=O)c3ccc(Cl)cc3)n2)s1`
[reply] 18.3

[ask] Return reported growth. Input molecule: `C/C(=C(\c1ccc(OCCCN(C)C)cc1)c1ccc(OC(=O)Cc2ccccc2)cc1)c1ccc(Cl)cc1`
[reply] 0.63

[ask] Return reported growth. Input molecule: COc1ccc(C2=NN3C(C2)c2cc(Br)ccc2OC3c2ccncc2)cc1 (configuration not stated)
[reply] 74.8

[ask] Return reported growth. Input molecule: `CC(=O)c1c(/C=C/c2ccc(C)cc2)c2ccccc2[nH]c1=O`
[reply] 90.6

[ask] Return reported growth. Input molecule: C#Cc1c(I)n(C2OC(CO[Si](C)(C)C(C)(C)C)C3OC(C)(C)OC32)c(=O)[nH]c1=O (configuration not stated)
[reply] -35.5

[ask] Return reported growth. Input molecule: `COC(=O)c1ccc(-n2cc(CCCOS(=O)(=O)c3ccc(F)cc3)nn2)cc1`
[reply] 95.5

[ask] Return reported growth. Input molecule: `CC1=C2[C@@H](CC1)[C@]1(C)O[C@@](C(C)C)(C[C@H]1OC(=O)CO)[C@H]2OC(=O)CCCc1ccccc1`
[reply] 53.9

[ask] Return reported growth. Input molecule: `O=C(Nc1ccccc1C(F)(F)F)C1=NCCCCN1`
[reply] 94.4

[ask] Return reported growth. Input molecule: `Cc1ccccc1NC(=O)c1sc2nc3c(cc2c1N)CCCC3`
[reply] 17.6

[ask] Return reported growth. Input molecule: `O=C1Nc2ccccc2/C1=C/c1cccn1CCCCCCn1c2ccccc2c(=O)c2ccccc21`
[reply] 66.6

[ask] Return reported growth. Input molecule: `Cc1cc2c(C(C)C)c(O)c(O)c(/C=N/O)c2c(O)c1-c1c(C)cc2c(C(C)C)c(O)c(O)c(/C=N/O)c2c1O`
[reply] -9.09

[ask] Return reported growth. Input molecule: `Cc1ccccc1NC(=O)Cn1cc(CN2CCN(c3ccnc4cc(Cl)ccc34)CC2)nn1`
[reply] 70

* * *

# Tested on: SNB-75 CNS
# Assay text: NCI-60 one-dose screen, 48 h (100 = growth as untreated, 0 = no growth, -100 = all killed)
# Settings: 10 µM unless noted
This is part of a sample that, as a whole, favours compounds with a hit. Of some 83,000 tested, about 20% had one in any assay. Activity calls are given as the source filed them. Rule for the calls: active = growth percent below 10; inactive = the rest.
Property measured: growth

[ask] Return reported growth. Input compound: `Cc1cc2c(C(C)C)c(O)c(O)c(/C=N/O)c2c(O)c1-c1c(C)cc2c(C(C)C)c(O)c(O)c(/C=N/O)c2c1O`
[reply] 80.3% (inactive)

[ask] Return reported growth. Input compound: `COc1ccc(NC(=O)c2sc3nc(C)c(C(=O)c4ccccc4)cc3c2N)cc1`
[reply] 107% (inactive)

[ask] Return reported growth. Input compound: `CCNc1nc(-c2ccc(Cl)c(OC)c2)c(-c2ccnc(NCCNS(=O)(=O)c3ccc(Cl)cc3)n2)s1`
[reply] 46.1% (inactive)

[ask] Return reported growth. Input compound: `COc1ccc(C2=C/C(=C\c3ccccc3O)C(=O)N2Cc2ccccc2)cc1`
[reply] 92.3% (inactive)

[ask] Return reported growth. Input compound: `Cn1cc(-c2nc(-c3c[nH]c4ccncc34)cs2)c2cc(F)ccc21`
[reply] -95% (active)
